Molecular target: rhodopsin (Bos taurus, UniProt P02699)
Construct: Bovine rod outer segments (rhodopsin-containing membranes) were prepared from fresh retinas; from tissue; host or cells: bovine retina, rod outer segment membranes (EDTA- and urea-washed)
Sequence (P02699 whole entry): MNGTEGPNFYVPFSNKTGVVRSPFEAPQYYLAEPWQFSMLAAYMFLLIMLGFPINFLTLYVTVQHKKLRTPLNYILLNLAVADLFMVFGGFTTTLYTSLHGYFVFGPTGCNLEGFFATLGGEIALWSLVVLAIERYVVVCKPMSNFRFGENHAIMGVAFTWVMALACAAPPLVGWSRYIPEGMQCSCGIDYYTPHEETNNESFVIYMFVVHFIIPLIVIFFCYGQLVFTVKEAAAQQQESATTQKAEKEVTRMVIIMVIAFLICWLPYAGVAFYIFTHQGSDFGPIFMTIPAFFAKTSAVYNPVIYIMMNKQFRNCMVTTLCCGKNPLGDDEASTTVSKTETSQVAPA
Assay: "extra MII" assay: stabilization of metarhodopsin II
Assay type: biochemical, bovine
Settings: MBP-high affinity peptide fusion proteins
measured.endpoint: EC50 (µM)
One number for each entry, in µM.

Please state EC50 for every sequence in the list that follows.
1. LQQVLKDCGLL [MBP-9]
2. MLENLKDCGLF [MBP-18]
3. LLENLRDCGMF [Peptide 8]

1: 1.05; 2: 1.24; 3: 0.94

====

Target: β2 adrenergic receptor (Homo sapiens)
Test: ELISA binding of peptides panned from the Gs library to β2 adrenergic receptor
Details: recombinant reconstituted β2 adrenergic receptor; peptides selected from Gs library
measured.endpoint: ELISA

NCMKFRSCGLF [BAR20]	.079
HRRHIGEFALL [BAR11]	.048
RWLHWQYRGRG [AG20]	.431

Please state ELISA for every sequence in the list that follows.
1. DRMHLWRFGLL [AG11]
2. QRMNLGPCGLL [AG18]
3. QRLRLGPDELF [AG4]
4. QRMPLRQYELL [AG9]
5. ERLHRRLFQLH [BAR8]
6. QRIHRRPFKFF [BAR1]

.192
.155
.291
.190
.047
.218

Please state ELISA for every sequence in the list that follows.
1. PCIQLGQYESF [BAR40]
2. QRVHLRQDELL [BAR2]

[".028", ".197"]
